Assay: sensitizers of A549 cells to miR-34 induction, primary screen, imaging, A549 dox-inducible miR-34, nuclei and caspase counts (AID 1347080)
Conditions: A549 miR-34 inducible, Hoechst nuclei count, 48 h; measured here: relative caspase fold change +Dox/-Dox
Param label: returns TRUE when fold change < 1, returns FALSE otherwise, including exact equality.

{"COMPOUND": "C=C[C@H]1CN2CC[C@H]1C[C@@H]2[C@@H](O)c1ccnc2ccccc12", "CAT": "FALSE"}
{"COMPOUND": "C[C@]12Cc3cn[nH]c3CC1CCC1C2CC[C@@]2(C)C1CC[C@]2(C)O (stereo not given in full)", "CAT": "FALSE"}
{"COMPOUND": "CC(=O)N(C)c1cccc(-c2ccnc3c(C(=O)c4cccs4)cnn23)c1", "CAT": "FALSE"}
{"COMPOUND": "C[CH2][Hg][S]c1ccccc1C(=O)O", "CAT": "TRUE"}
{"COMPOUND": "CC[C@H]1C2C[C@H]3[C@@H]4N(C)c5ccccc5C45C[C@H](C2[C@H]5O)N3[C@@H]1O (stereo not given in full)", "CAT": "FALSE"}
{"COMPOUND": "C[C@]12CCC(=O)C=C1C=C[C@@H]1[C@@H]2CC[C@@]2(C)[C@H]1CC[C@@]2(O)CCC(=O)O", "CAT": "FALSE"}
{"COMPOUND": "NCC(CS(=O)(=O)O)c1ccc(Cl)cc1 (stereo not given)", "CAT": "FALSE"}
{"COMPOUND": "CCCCCCC(=O)O[C@H]1CC[C@H]2[C@@H]3C[C@H](O)C4=CC(=O)CC[C@]4(C)[C@H]3CC[C@]12C", "CAT": "FALSE"}
{"COMPOUND": "C[C@]12CCC(=O)C=C1CCC1C2CC[C@@]2(C)C1CC[C@]2(C)O (stereo not given in full)", "CAT": "TRUE"}
{"COMPOUND": "CN1CCc2cccc(Cl)c2CC1", "CAT": "FALSE"}

====

Here, each record is paired with measured inhibition data.
Test: HTB85 osteosarcoma cell growth inhibition, synergistic combos for chromothripsis tumors, BGB or cisplatin IC20 combos (AID 1671453);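 also: cells exposed for 96 hours before readout; 0% = vehicle DMSO and 100% = high DMSO killing control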
Settings: HTB85 osteosarcoma cells, drug combinations, at 0.5 µM, stronger effect = higher value
REPORTED PROPERTY: inhibition (%)

{"COMPOUND": "COc1cc(C2c3cc4c(cc3C(O)C3COC(=O)C23)OCO4)cc(OC)c1OC (configuration not stated)", "REPORTED VALUE": 72.2}
{"COMPOUND": "Cc1c2ccncc2c(C)c2c1[nH]c1ccccc12", "REPORTED VALUE": -6.03}
{"COMPOUND": "O=C1CCC[C@@H]2[C@H]3CCCN4CCC[C@@H](CN12)[C@@H]34", "REPORTED VALUE": 0.28}
{"COMPOUND": "Cn1c(COP(=O)(NCCBr)NCCBr)cnc1[N+](=O)[O-]", "REPORTED VALUE": -13.1}
{"COMPOUND": "O=C(O)CCCc1ccc(N(CCCl)CCCl)cc1", "REPORTED VALUE": -18.7}
{"COMPOUND": "NC(Cc1ccc(N(CCCl)CCCl)cc1)C(=O)O (configuration not stated)", "REPORTED VALUE": 5.83}
{"COMPOUND": "Cn1c(CCCC(=O)O)nc2cc(N(CCCl)CCCl)ccc21", "REPORTED VALUE": -34.4}
